target under test: T1, ITSN1 SH3d (aa1076-1138), recombinant (human, UniProt Q15811-1 1076-1138)
T1 construct: Intersectin 1 long form (ITSN1L), human, fourth SH3 domain (SH3d), residues 1076-1138; The purification of this protein is not described; the tag was probably cleaved as for the FCHSD2 proteins (surmised); also called pOPINS-ITSN1-SH3d; source: E. coli, 6xHis-SUMO construct (pOPINS)
T1 sequence (looked up): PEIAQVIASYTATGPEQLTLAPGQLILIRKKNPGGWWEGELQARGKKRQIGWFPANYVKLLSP
assay explanation: ITC; isothermal titration calorimetry of FCHSD2 SH3-2 and ITSN1 SH3d; conditions and direction of titration not told
condition notes: both partners purified

binder	unit info	Kd
FCHSD2 SH3-2 (aa568-629), recombinant (domain or fragment, human, UniProt O94868-1 568-629, looked up, FCHSD2, human, second SH3 domain, residues 568-629; that the same preparation was the prey of the GST pull-downs and the ITC sample is surmised; also called pOPINS-FCHSD2 SH3-2; F2S2; source: E. coli Rosetta (DE3), purified (HisTrap, anion exchange, Sumo protease, Superdex 200); not shown: His-SUMO, N-terminal, cleaved) SVCFVKALYDYEGQTDDELSFPEGAIIRILNKENQDDDGFWEGEFNGRIGVFPSVLVEELSA	nM	248
